# System: TK-10 renal
# Assay info: NCI-60 one-dose screen, 48 h (100 = growth as untreated, 0 = no growth, -100 = all killed)
# Protocol conditions: 10 µM unless noted
This is part of a sample that, as a whole, favours compounds with a hit. Of some 83,000 tested, about 20% had one in any assay.
Quick reference: growth of the listed items.

{"Chemical string": "COc1ccc(-c2nocc2-c2cccs2)cc1", "growth [%]": 104}
{"Chemical string": "O=C(CCN1C(=O)c2ccccc2C1=O)Nc1ccc(Cl)cc1", "growth [%]": 93.1}
{"Chemical string": "COc1cc(/C=C2\\CCC/C(=C\\c3cc(CN4CCCCC4)c(O)c(OC)c3)C2=O)cc(CN2CCCCC2)c1O", "growth [%]": 115}

====

# System: SK-OV-3 ovarian
# Assay info: NCI-60 one-dose screen, 48 h (100 = growth as untreated, 0 = no growth, -100 = all killed)
# Protocol conditions: 10 µM unless noted
This is part of a sample that, as a whole, favours compounds with a hit. Of some 83,000 tested, about 20% had one in any assay.
Measurement type: growth (%)

{"Chemical string": "COc1cc(CNC(=O)c2ccsc2Nc2ccnc(C(F)(F)F)c2)ccc1O", "Measurement type": "growth", "Readout unit": "%", "Measured number": 97.3}
{"Chemical string": "O=C(CCc1nnc2sc(Cc3ccccc3Cl)nn12)c1nc2ncccc2[nH]1", "Measurement type": "growth", "Readout unit": "%", "Measured number": 108}
{"Chemical string": "COc1ccc(Nc2nc(N/N=C/c3ccc(O)cc3)nc(Nc3ccc([N+](=O)[O-])cc3)n2)cc1", "Measurement type": "growth", "Readout unit": "%", "Measured number": 112}
{"Chemical string": "CC1=C(C(=O)OCC2CCN(C(=O)OC(C)(C)C)CC2)[C@H](c2cccc(Br)c2)C2=C(CC(C)(C)CC2=O)N1", "Measurement type": "growth", "Readout unit": "%", "Measured number": 56}
{"Chemical string": "O=C(CN1C(=O)/C(=C\\c2ccc(Cl)cc2)SC1=S)Nc1ncc(Cc2ccc(Cl)cc2)s1", "Measurement type": "growth", "Readout unit": "%", "Measured number": 104}
{"Chemical string": "O=C1C(Cl)=C(NCc2ccco2)C(=O)c2ccccc21", "Measurement type": "growth", "Readout unit": "%", "Measured number": 115}
{"Chemical string": "O=C1c2cc(Cl)ccc2Oc2cc([N+](=O)[O-])ccc2N1c1ccc(F)cc1F", "Measurement type": "growth", "Readout unit": "%", "Measured number": 111}
{"Chemical string": "CCOC(=O)c1cnc2ccc(Cl)cc2c1NCCCN(C)C", "Measurement type": "growth", "Readout unit": "%", "Measured number": 14.5}
{"Chemical string": "CCOC(=O)c1cc2c(n1Cc1ccccc1OC)-c1oncc1CCC2", "Measurement type": "growth", "Readout unit": "%", "Measured number": 24.2}

====

# Tested on: HCC-2998 colon
# Assay info: NCI-60 one-dose screen, 48 h
# Protocol conditions: 10 µM unless noted
This is part of a sample that, as a whole, favours compounds with a hit. Of some 83,000 tested, about 20% had one in any assay. The source made the active and inactive calls. Rule for the calls: active = growth percent below 10; inactive = the rest.
Possible outcomes: active, inactive

{"Molecule": "O=c1cc(-c2ccccc2)oc2cc(OCc3cn(Cc4ccc(F)cc4)nn3)cc(OCc3cn(Cc4ccc(F)cc4)nn3)c12", "Class": "inactive"}
{"Molecule": "COc1cc(C2CC(c3ccc(Nc4nc(NCCO)nc(N5CCOCC5)n4)cc3)=NN2c2cc(Cl)cc(Cl)c2)cc(OC)c1OC (stereo not drawn)", "Class": "inactive"}
{"Molecule": "CC1=C(C(=O)OCC2CCN(C(=O)OC(C)(C)C)CC2)[C@H](c2cccc(Br)c2)C2=C(CC(C)(C)CC2=O)N1", "Class": "inactive"}
{"Molecule": "O=NN(C(=O)NC1CCC(C(=O)O)CC1)C1CCC(C(=O)O)CC1 (stereo not drawn)", "Class": "inactive"}
{"Molecule": "CCn1c(SCC(=O)Nc2cc(C(F)(F)F)ccc2Cl)nc2ccccc2c1=O", "Class": "inactive"}
{"Molecule": "COC(=O)/C(CCC=C(C)C)=C1\\[C@@H](OC(C)=O)C[C@@]2(C)[C@H]1C[C@@H](O)[C@H]1[C@@]3(C)CC[C@H](NC(=O)c4cnccn4)[C@@H](C)[C@@H]3CC[C@@]12C", "Class": "inactive"}
{"Molecule": "CN(C)/C=C1\\SC(=Nc2ccc(Cl)cc2)NC1=O", "Class": "inactive"}
{"Molecule": "CCN(CCO)CCNc1ccc(C)c2sc3cc(Cl)ccc3c(=O)c12", "Class": "active"}
{"Molecule": "Cn1nc(C(C)(C)C)cc1NC(=O)Cc1ccc(/C=C2\\C(=O)Nc3ccccc32)cc1", "Class": "inactive"}
{"Molecule": "O=C(Nc1ccc(-c2nc3cc4ccccc4cc3[nH]2)cc1)c1cccc(Br)c1", "Class": "inactive"}
{"Molecule": "Cc1sc2ncn(CC(=O)Nc3ccc(S(N)(=O)=O)cc3)c(=O)c2c1C", "Class": "inactive"}
{"Molecule": "CN1C(=O)N(C)C2(c3ccccc3)OC(=S)NC12c1ccccc1 (stereo not drawn)", "Class": "inactive"}
{"Molecule": "O=C(CSc1ncccc1C(=O)O)Nc1ccc(Oc2ccccc2)cc1", "Class": "inactive"}
{"Molecule": "COc1cc(/C=C/C(=O)c2ccc(Nc3nc(NCCO)nc(N4CCOCC4)n3)cc2)cc(OC)c1OC", "Class": "inactive"}
{"Molecule": "O=C1Nc2ccccc2/C1=C/c1ccc[nH]1", "Class": "inactive"}
{"Molecule": "CN=c1ccc2nc3ccc(N)cc3sc-2c1", "Class": "inactive"}
{"Molecule": "Nc1nc(Nc2cccc(F)c2)nc2ccccc12", "Class": "active"}
{"Molecule": "O=c1c(-c2nc3ccccc3[nH]2)cc2ccccc2n1Cc1cn(Cc2ccc(F)cc2)nn1", "Class": "active"}
{"Molecule": "CN1CCN(c2nc(Nc3ccc(O)cc3)nc3ccccc23)CC1", "Class": "inactive"}
{"Molecule": "COc1cc(/C=C2\\CCC/C(=C\\c3cc(CN4CCCCC4)c(O)c(OC)c3)C2=O)cc(CN2CCCCC2)c1O", "Class": "inactive"}
{"Molecule": "Cc1cc(Nc2ccc(OCc3ccccc3)cc2)nc2cc(O)ccc12", "Class": "active"}
{"Molecule": "O=C(Nc1ccc(Cl)cc1)c1cc2ccccc2cc1OP(=O)(O)O", "Class": "inactive"}
{"Molecule": "O=CCCCC(O)C=O (stereo not drawn)", "Class": "inactive"}
{"Molecule": "O=C(/C=C/c1ccccc1)c1ccc(Nc2nc(NCCO)nc(Nc3ccc(Cl)cc3)n2)cc1", "Class": "inactive"}
{"Molecule": "CC(C)C[C@H](C(=O)N[C@@H](C)C(N)=O)N1CC=CCN(O)S1(=O)=O", "Class": "inactive"}
{"Molecule": "Cc1nc(Nc2ccccn2)sc1C(=O)/C=C/c1ccc(Cl)cc1", "Class": "inactive"}
{"Molecule": "CCOC(=O)c1ccc(N=Cc2sc(=O)[nH]c2O)cc1", "Class": "inactive"}
{"Molecule": "O=S1(=O)CCN(Cc2ccccc2)CC1", "Class": "inactive"}
{"Molecule": "CS(=O)(=O)Nc1ccc(C(=O)NC(C(=O)NO)c2ccc(-c3cccc(F)c3)cc2)cc1 (stereo not drawn)", "Class": "inactive"}
{"Molecule": "COc1ccc(/C=C2/SC(=O)N(CC(=O)N3CCN(c4cc5c(cc4F)c(=O)c(C(=O)O)cn5C4CC4)CC3)C2=O)cc1", "Class": "inactive"}
{"Molecule": "OCCNc1nc(Nc2ccc(C3=NN(c4cc(Cl)cc(Cl)c4)C(c4ccc(C(F)(F)F)cc4)C3)cc2)nc(N2CCOCC2)n1 (stereo not drawn)", "Class": "inactive"}
{"Molecule": "Cc1c(C(=O)OCCO)cc(-c2ccc(Cl)cc2)n1-c1ccc(Cl)cc1Cl", "Class": "inactive"}
{"Molecule": "NCCNc1nc2ccccc2c2c(=O)c3cc(F)cc(Cl)c3sc12", "Class": "inactive"}

====

# Tested on: UO-31 renal
# Assay info: NCI-60 one-dose screen, 48 h (100 = growth as untreated, 0 = no growth, -100 = all killed)
# Protocol conditions: 10 µM unless noted
The panel holds about 83,000 compounds, 20% with a hit somewhere; the sample as a whole holds those more often.
Would you please tag the item true (1) when its growth is 60% or above, and false (0) when it is below?

{"Compound": "Cc1cc(OC(=O)c2ccc([N+](=O)[O-])cc2)nc2[nH]c(=O)sc12", "Class": "true (1)"}
{"Compound": "CN1C(=O)N(C)C2C1NN=c1s/c(=C\\c3ccc([N+](=O)[O-])cc3)c(=O)n12 (stereo not given)", "Class": "true (1)"}
{"Compound": "Cc1cccc(NC(=O)c2sc3nc4c(cc3c2N)CCCC4)c1C", "Class": "false (0)"}
{"Compound": "Cc1ccc(C2CC(c3ccc(Nc4nc(NCCO)nc(Nc5ccc(Cl)cc5)n4)cc3)=NN2c2cc(Cl)cc(Cl)c2)cc1 (stereo not given)", "Class": "true (1)"}
{"Compound": "COc1cc(/C=C/C(=O)c2ccc(Nc3nc(NCCO)nc(N4CCOCC4)n3)cc2)cc(OC)c1OC", "Class": "false (0)"}
{"Compound": "COc1ccc(C(O)(CCC(C)C)C(CN2CCOCC2)c2ccc(Cl)cc2)cc1 (stereo not given)", "Class": "true (1)"}
{"Compound": "Nc1nc(Nc2cccc(F)c2)nc2ccccc12", "Class": "false (0)"}
{"Compound": "CN1C(=O)N(C)C2C1NN=c1s/c(=C\\c3ccc(Cl)cc3Cl)c(=O)n12 (stereo not given)", "Class": "false (0)"}
{"Compound": "O=C(c1ccccc1)N(C(=S)NCCc1ccc(Cl)cc1)c1ccccc1", "Class": "true (1)"}
{"Compound": "Oc1[nH]c2ccccc2c1N=Nc1nnc2n1N=C(c1ccccc1)CS2", "Class": "true (1)"}
{"Compound": "COc1ccc(Nc2nc(N/N=C/c3ccc(O)cc3)nc(Nc3ccc([N+](=O)[O-])cc3)n2)cc1", "Class": "true (1)"}
{"Compound": "CCCCCCC(O)(c1ccc(F)cc1)C(CN1CCOCC1)c1ccccc1 (stereo not given)", "Class": "false (0)"}
{"Compound": "Clc1ccc(Nc2scc3[n+]2CCC3)cc1", "Class": "true (1)"}
{"Compound": "COc1ccc(-c2nsc3c2NC(=O)CC3c2ccsc2)cc1 (stereo not given)", "Class": "false (0)"}
{"Compound": "O=Cc1c(OCc2cnnn2CC(=O)Nc2ccc(Cl)cc2)ccc2ccccc12", "Class": "true (1)"}
{"Compound": "CCOC(=O)C1=C(C)N=c2s/c(=C\\c3ccccc3O)c(=O)n2C1c1ccc(OC)c2ccccc12 (stereo not given)", "Class": "false (0)"}
{"Compound": "NCCCNc1nc2ccccc2c2c(=O)c3cc(F)ccc3sc12", "Class": "false (0)"}
{"Compound": "O=c1oc2ccc(Br)cc2c(=O)n1-c1ccc(Cl)cc1F", "Class": "false (0)"}
{"Compound": "O=c1nc2sc3nc4ccccc4cc3cc-2s1", "Class": "true (1)"}

Taken from PubChem BioAssay (NCI).
